Target: UniProtKB P35398
Sequence (P35398 with tags, fused parts or gaps): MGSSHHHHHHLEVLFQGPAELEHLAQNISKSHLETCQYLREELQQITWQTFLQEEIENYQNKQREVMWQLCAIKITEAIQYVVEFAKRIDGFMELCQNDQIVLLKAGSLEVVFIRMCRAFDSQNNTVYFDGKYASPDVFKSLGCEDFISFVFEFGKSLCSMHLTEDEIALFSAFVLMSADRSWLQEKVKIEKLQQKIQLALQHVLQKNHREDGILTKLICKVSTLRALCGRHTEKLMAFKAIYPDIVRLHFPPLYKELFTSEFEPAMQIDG
Experiment: TR-FRET assay measuring RORalphaLBD interaction with the LXXLL peptide SRC1−NR1+2, Example 2
Structures can show the parent of a compound that is named as a salt.
Measured attribute: EC50

Query: Which EC50 reading was recorded for the compound CC(C)CCC[C@@H](C)[C@H]1CC[C@H]2[C@@H]3CC=C4C[C@@H](OS(=O)(=O)O)CC[C@]4(C)[C@H]3CC[C@]12C [Cholesterol sulfate] ?
Result: ~10 µM
